- Test system: DMS-114
- TEST_PROTOCOL: NCI tumour cell line growth inhibition, 48 h
The source made the active and inactive calls. No stated cut-off is given here; in the data, active = GI50 up to about 1.1 µM and inactive = higher.
Known GI50 of a selection of molecules

MOLECULE | GI50
CC(=O)OCC1OC(NC(=S)N/N=C2\CC(c3ccccc3)Oc3ccccc32)C(OC(C)=O)C(OC(C)=O)C1OC(C)=O (configuration not stated) | > 100 µM (inactive)
N=C(N)SCCc1cn2ccccc2n1 | > 100 µM (inactive)
OC12c3ccccc3C1CCCCCCCCCC21OCCCO1 (configuration not stated) | > 100 µM (inactive)
CN(CCN(C)C(=O)CCn1ccc(=O)[nH]c1=O)C(=O)CCn1ccc(=O)[nH]c1=O | > 100 µM (inactive)
C/C=C/CC(C)[C@@H](O)[C@H](NC)C(=O)O (some centres not stated) | > 100 µM (inactive)
O=C1OC2CCCC[C@@H]2C2C[C@]34CCCCC3[C@@H](C(=O)O4)C12 (some centres not stated) | > 100 µM (inactive)
C[N+]1(C)C/C(=C\c2ccccc2)C(=O)/C(=C/c2ccccc2)C1 | 39.5 µM (inactive)
Sc1nnc(COc2ccc(Cl)cc2Cl)[nH]1 | > 100 µM (inactive)

# input Given the molecule O=C(/C=N/O)Nc1ccc(Cl)c(I)c1 , what is its reported GI50?
# output 16.6 µM (inactive)

# input Can you check COc1ccc(OC)c2c(=S)c3ccccc3[nH]c12 next?
# output 32 µM (inactive)

# input Can you check O=C(Nc1nc2ncn(CC(COc3ccccc3)OC(=O)c3ccccc3)c2c(=O)[nH]1)c1ccccc1 (configuration not stated) next?
# output > 100 µM (inactive)

# input Can you check OC1=CN=C(C2CC2)Oc2ccccc21 next?
# output 41 µM (inactive)

FYI, the data here is from ChEMBL document CHEMBL1201862.
